# system under test: Speckle-type POZ protein-Bromodomain-containing protein 4 (Homo sapiens, UniProt O60885+O43791)
# Sequence (O43791 whole entry, looked up, other chains not shown, canonical isoform): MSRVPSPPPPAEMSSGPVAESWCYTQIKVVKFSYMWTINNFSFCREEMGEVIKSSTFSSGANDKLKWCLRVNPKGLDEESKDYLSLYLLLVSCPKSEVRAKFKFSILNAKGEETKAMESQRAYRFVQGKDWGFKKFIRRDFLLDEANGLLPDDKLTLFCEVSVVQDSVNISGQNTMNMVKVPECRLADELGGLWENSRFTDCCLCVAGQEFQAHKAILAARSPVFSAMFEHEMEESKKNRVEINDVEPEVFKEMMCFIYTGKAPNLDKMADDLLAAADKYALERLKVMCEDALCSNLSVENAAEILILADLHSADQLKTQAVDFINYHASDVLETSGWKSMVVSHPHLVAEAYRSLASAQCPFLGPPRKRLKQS
# test summary: PROTAC activity at SPOP/BRD4-S in human HT-29 cells assessed as induction of BRD4 short isoform degradation at 0.5 to 5 uM incubated for 24 hrs by Western blotting analysis
# Assay type: cell-based
# condition set: dose 0.5-5 µM
Calls of active or inactive are those of the source. The calls are words filed in the database; no cut-off is given here.
Respond only with the outcome that fits, drawn from active, inactive

Recorded test outcome, item `COc1cc2c(NC3CCN(CCCC(=O)NCCCCCNC(=O)C[C@@H]4N=C(c5ccc(Cl)cc5)c5c(sc(C)c5C)-n5c(C)nnc54)CC3)cc(N3CCOCC3)nc2cc1OCCCN1CCCC1` inactive

Call for entry `COc1cc2c(NC3CCN(CCCC(=O)NCCCCNC(=O)C[C@@H]4N=C(c5ccc(Cl)cc5)c5c(sc(C)c5C)-n5c(C)nnc54)CC3)cc(N3CCOCC3)nc2cc1OCCCN1CCCC1` : inactive

What was the test verdict on `COc1cc2c(NC3CCN(CCCC(=O)NCCCCCCNC(=O)C[C@@H]4N=C(c5ccc(Cl)cc5)c5c(sc(C)c5C)-n5c(C)nnc54)CC3)cc(N3CCOCC3)nc2cc1OCCCN1CCCC1` ? inactive

For `COc1cc2c(NC3CCN(CCCC(=O)NCCCCCCCCCNC(=O)C[C@@H]4N=C(c5ccc(Cl)cc5)c5c(sc(C)c5C)-n5c(C)nnc54)CC3)cc(N3CCOCC3)nc2cc1OCCCN1CCCC1` , what call appears in the results of this test? active

====

# system under test: Speckle-type POZ protein-Bromodomain-containing protein 4 (Homo sapiens, UniProt O60885+O43791)
# test summary: PROTAC activity at SPOP/BRD4-S in human HT-29 cells assessed as induction of BRD4 short isoform degradation at 0.5 to 5 uM incubated for 24 hrs by Western blotting analysis
# Format: cell-based
# condition set: dose 0.5-5 µM
Calls of active or inactive are those of the source. The rule behind the calls is not given here.
Lab note: assign the record to one of true for active, false for inactive

COc1cc2c(NC3CCN(CCCC(=O)NCCCCCCCCNC(=O)C[C@@H]4N=C(c5ccc(Cl)cc5)c5c(sc(C)c5C)-n5c(C)nnc54)CC3)cc(N3CCOCC3)nc2cc1OCCCN1CCCC1    true
COc1cc2c(NC3CCN(CCCC(=O)NCCCNC(=O)C[C@@H]4N=C(c5ccc(Cl)cc5)c5c(sc(C)c5C)-n5c(C)nnc54)CC3)cc(N3CCOCC3)nc2cc1OCCCN1CCCC1    false
COc1cc2c(NC3CCN(CCCC(=O)NCCCCCCCNC(=O)C[C@@H]4N=C(c5ccc(Cl)cc5)c5c(sc(C)c5C)-n5c(C)nnc54)CC3)cc(N3CCOCC3)nc2cc1OCCCN1CCCC1    false
COc1cc2c(NC3CCN(CCCC(=O)NCCCCCCCCCCNC(=O)C[C@@H]4N=C(c5ccc(Cl)cc5)c5c(sc(C)c5C)-n5c(C)nnc54)CC3)cc(N3CCOCC3)nc2cc1OCCCN1CCCC1    true

Check the results log: what was the call for `COc1cc2c(NC3CCN(CCCC(=O)NCCNC(=O)C[C@@H]4N=C(c5ccc(Cl)cc5)c5c(sc(C)c5C)-n5c(C)nnc54)CC3)cc(N3CCOCC3)nc2cc1OCCCN1CCCC1` ? false

====

# system under test: UniProt Q9H9B1
# Sequence (Q9H9B1 whole entry): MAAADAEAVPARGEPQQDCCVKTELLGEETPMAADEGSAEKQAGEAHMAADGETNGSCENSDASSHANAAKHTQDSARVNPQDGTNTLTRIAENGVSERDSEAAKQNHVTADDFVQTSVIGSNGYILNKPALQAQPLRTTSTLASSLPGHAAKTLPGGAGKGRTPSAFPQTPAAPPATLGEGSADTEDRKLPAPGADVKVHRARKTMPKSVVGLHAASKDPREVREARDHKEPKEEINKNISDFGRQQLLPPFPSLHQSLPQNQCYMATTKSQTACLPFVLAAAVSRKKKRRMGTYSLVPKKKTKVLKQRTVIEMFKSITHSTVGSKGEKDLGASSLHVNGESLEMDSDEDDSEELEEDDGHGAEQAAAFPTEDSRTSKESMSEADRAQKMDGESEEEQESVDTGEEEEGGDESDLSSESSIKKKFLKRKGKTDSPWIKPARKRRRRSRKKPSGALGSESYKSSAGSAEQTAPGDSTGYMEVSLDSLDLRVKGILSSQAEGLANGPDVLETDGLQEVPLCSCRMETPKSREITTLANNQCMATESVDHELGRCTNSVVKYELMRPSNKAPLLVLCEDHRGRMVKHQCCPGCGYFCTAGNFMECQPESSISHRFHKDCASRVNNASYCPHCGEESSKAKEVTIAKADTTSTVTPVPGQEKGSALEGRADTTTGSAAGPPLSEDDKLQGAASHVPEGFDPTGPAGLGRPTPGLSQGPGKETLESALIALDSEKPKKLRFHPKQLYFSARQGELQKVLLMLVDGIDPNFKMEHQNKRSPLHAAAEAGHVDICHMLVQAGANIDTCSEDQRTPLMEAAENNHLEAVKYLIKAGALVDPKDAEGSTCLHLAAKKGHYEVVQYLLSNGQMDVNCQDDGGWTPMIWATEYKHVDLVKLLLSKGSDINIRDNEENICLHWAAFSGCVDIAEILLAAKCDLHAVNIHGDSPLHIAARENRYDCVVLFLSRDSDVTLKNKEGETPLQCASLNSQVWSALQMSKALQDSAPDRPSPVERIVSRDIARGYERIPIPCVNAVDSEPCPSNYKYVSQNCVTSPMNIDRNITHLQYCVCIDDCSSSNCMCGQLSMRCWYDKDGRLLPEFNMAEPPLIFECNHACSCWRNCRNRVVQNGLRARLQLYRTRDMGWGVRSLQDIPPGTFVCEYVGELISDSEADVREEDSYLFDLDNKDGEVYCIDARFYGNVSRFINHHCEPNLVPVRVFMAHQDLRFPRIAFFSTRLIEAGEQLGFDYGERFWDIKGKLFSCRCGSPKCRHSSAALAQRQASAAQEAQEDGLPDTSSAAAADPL
# test summary: Binding affinity to recombinant GLP-SET domain (unknown origin) assessed as assessed as dissociation constant by ITC analysis
quantity name: Kd

Kd for `COc1cc2c(NC3CCN(CCCC(=O)NCCCCCCCCCCNC(=O)C[C@@H]4N=C(c5ccc(Cl)cc5)c5c(sc(C)c5C)-n5c(C)nnc54)CC3)cc(N3CCOCC3)nc2cc1OCCCN1CCCC1` is 0.306 µM
